# ASSAY_TARGET: Human immunodeficiency virus type 1 protease (Human immunodeficiency virus 1)
# TEST: Inhibition of HIV1 protease at 5 uM
PROPERTY_NAME: inhibition
Please provide the amount together with its unit, number first.

Problem: Fill in: inhibition of Cc1ccc(Cl)cc1N1CCN(Cc2cn([C@@H](Cc3ccccc3)[C@H](Cc3ccccc3)NC(=O)OCC(C)C)nn2)CC1 is ___
Solution: 73%

Problem: Input O=C(N[C@@H](Cc1ccccc1)[C@H](Cc1ccccc1)n1cc(CN2CCN(c3ccccc3Cl)CC2)nn1)OC1CCCC1
Solution: 76%

Problem: Similarly, O=C(N[C@@H](Cc1ccccc1)[C@H](Cc1ccccc1)n1cc(CN2CCN(c3ccncc3)CC2)nn1)OC1CCCC1 ?
Solution: 12%

Problem: Consider next the compound O=C(N[C@@H](Cc1ccccc1)[C@H](Cc1ccccc1)n1cc(CN2CCC(c3ccccc3)CC2)nn1)OC1CCCC1 in the same way.
Solution: 67%

Problem: Check O=C(N[C@@H](Cc1ccccc1)[C@H](Cc1ccccc1)n1cc(CN2CCN(c3ccccn3)CC2)nn1)OC1CCCC1 too.
Solution: 36%

Problem: Here is the next compound: O=C(N[C@@H](Cc1ccccc1)[C@H](Cc1ccccc1)n1cc(CN2CCC(O)(c3ccc(Cl)c(C(F)(F)F)c3)CC2)nn1)OC1CCCC1
Solution: 48%

Problem: Cool, now O=C(N[C@@H](Cc1ccccc1)[C@H](Cc1ccccc1)n1cc(CN2CCN(c3cccc(C(F)(F)F)c3)CC2)nn1)OC1CCCC1 (stereo in doubt; (S,S)-7d)
Solution: 87%

---

# ASSAY_TARGET: Human immunodeficiency virus type 1 protease (Human immunodeficiency virus 1, UniProt Q72874)
pIC50: −log10 of the molar value.
PROPERTY_NAME: pIC50

Problem: // pIC50 lookup, key: Cc1ccc(C)c(N2CCN(Cc3cn([C@@H](Cc4ccccc4)[C@H](Cc4ccccc4)NC(=O)OC4CCCC4)nn3)CC2)c1
Solution: < 4.60

---

# ASSAY_TARGET: UniProtKB Q72874
pKi: −log10 of the molar value.
Classify by measured pKi: y if it is equal to or exceeds 7, n if it is smaller.

Problem: Reported pKi reaches at least 7 for Cc1ccc(Cl)cc1N1CCN(Cc2nnn([C@@H](Cc3ccccc3)[C@H](Cc3ccccc3)NC(=O)OC3CCCC3)c2[C@H](C)O)CC1 ?
Solution: y

Problem: Repeat with Cc1ccc(C)c(N2CCN(Cc3nnn([C@@H](Cc4ccccc4)[C@H](Cc4ccccc4)NC(=O)OC4CCCC4)c3[Si](C)(C)C)CC2)c1
Solution: n

Problem: Quick one: Cc1ccc(Cl)cc1N1CCN(Cc2cn([C@@H](Cc3ccccc3)[C@H](Cc3ccccc3)NC(=O)OC3CCCC3)nn2)CC1
Solution: y

Problem: Again, but for CC[C@H](O)c1c(CN2CCN(c3cc(C)ccc3C)CC2)nnn1[C@@H](Cc1ccccc1)[C@H](Cc1ccccc1)NC(=O)OC1CCCC1
Solution: y

Problem: Try Cc1ccc(Cl)cc1N1CCN(Cc2cn([C@@H](Cc3ccccc3)[C@H](Cc3ccccc3)NC(=O)CC3CCCC3)nn2)CC1 next.
Solution: n

Problem: Same for CC(C)(C)OC(=O)N[C@@H](Cc1ccccc1)[C@H](Cc1ccccc1)N=[N+]=[N-]
Solution: n

Problem: // same read-out, input: Cc1ccc(C)c(N2CCN(Cc3nnn([C@@H](Cc4ccccc4)[C@H](Cc4ccccc4)NC(=O)OC4CCCC4)c3[C@@H](C)O)CC2)c1
Solution: y
